Target: T1, human ASGR-1 mutant construct H203 (human, UniProt P07306 1-291)
T1 construct: Arg/Glu scanning: non-arginine residues were changed to arginine; Transiently expressed on CHO-S cells
T1 sequence: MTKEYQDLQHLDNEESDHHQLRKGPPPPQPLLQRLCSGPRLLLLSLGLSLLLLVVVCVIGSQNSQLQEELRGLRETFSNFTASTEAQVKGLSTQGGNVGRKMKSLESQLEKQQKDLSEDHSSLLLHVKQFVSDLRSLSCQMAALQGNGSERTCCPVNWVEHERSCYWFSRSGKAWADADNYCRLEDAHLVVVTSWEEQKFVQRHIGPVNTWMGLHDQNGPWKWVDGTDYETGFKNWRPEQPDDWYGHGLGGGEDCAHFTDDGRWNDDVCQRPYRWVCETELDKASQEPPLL
Assay: FACS, transfected CHO-S cells, mAb 5 ug/ml
observed.property: FACS Binding Geomean
Write no unit; give the number alone.

binder	numeric.result
72F5 (antibody, V domains shown, mAb) VH: EVQLLESGGGLVQPGGSLRLSCAASGFTFSSYAMIWVRQAPGKGLEWVSTISGSGGYTYSADSVKGRFTISRDNSKNTLYLQMNSLRAEDTAVYYCARRIAVTGTEWYDPWGQGTLVTVSS VL: DIQMTQSPSSLSASVGDRVIIPCRASQNISSYLNWYQQKPGKAPKLLIYAASSLQSGVPSRFSGSGSGTDFTLTISSLQPEDFATYSCQQTYSTPTFGQGTRLDIN	10500
198G3 (antibody, V domains shown, mAb) VH: QVQLVESGGGVVQPGRSLKLSCAASGFTFSTYGMHWVRQAPGKGLEWVAVIWYDGTNKNYADSVKGRFTISRDNSKNTLCLQMNSLRAEDTAVYYCARDQGVGYDGLDVWGQGTTVTVSS VL: DIQMAQSPSSLSASVGDRVTITCRTSQGIGKYLAWFQQKPGKAPKSLLYKASSLQGGVPSKFSGSGSGTDFTLTISSLQPEDFATYYCQQYMTYPLTFGGGTKVEIK	13100
60D2 (antibody, V domains shown, mAb) VH: EVQLVESGGGLVQPGGSLRLSCGASGFTFSSYSMNWVRQAPGKGLEWVSYISESSNIIYYTDSVKGRFTISRDNAMNSLYLQMNSLRDEDTAVYYCARADTPMVLYFYGMDVWGQGTTVTVSS VL: SYELTQPPSVSVSPGQTASITCSGNKLGDKYASWYQQRPGQSPVLVIYQDNKRPSGIPERFSGSNSGNTATLTISGTQTMDEADYYCQAWDNNTVVFGGGTKLTVL	1370
52H2 (antibody, V domains shown, mAb) VH: EVQLLESGGGLVQPGGSLRLSCAASGFTFSRNAMSWVRQAPGMGLEWVSAISGRGGNTFYADSVKGRFTVSRDNSKNTLFLQMNSLRAEDTAVYYCAKNGREQWLDYWGQGTLVTVSS VL: DIQMTQSPSSVSASVGDRVTITCRASQNITNWLAWFQQKPGRAPKLLIYTTSSLQSGVPSRFSGSGSGTDFTLTISSLQPEDFATYCCQQTNSFPWTFGHGTKVEVK	18600

Now examine the next entry.
Sure, the documented FACS Binding Geomean for 7G4 (antibody, V domains shown, mAb) VH: QVQLVESGGGVVQPGRSLRLSCAASGFTFNNYVMHWVRQAPGKGLEWVAVIWYDGSNKYYADSVKGRFTISRDNSKNTLYLQMTSLRAEDTAVYYCAREKYSSNWYDYGMDVWGQGTTVTVSS VL: DIQMTQSPSSLSASVGDRVTITCRASQGIRNDLGWYQQRPGKAPKRLIYAASSLQSGVPSRFSGSGSGTEFTLTISSLQPEDSATYYCLHQYSYPRTFGQGTKVEIK is 18500
